Source of measurements: patent US20250049777A1

- assay.comment: Stability of crystal forms of salts under influencing factors (illumination, high temperature, high humidity)
- Assay type: physicochemical
- details: 92.5% RH, 30 days, open
Counter-ions that a name gives are not always drawn.
Measured % Purity by item
Write the answer as a number in %, unit excluded.

>>> print(df.to_string())
                                   compound  measured
0  O=C(O)c1ccc2nc(CN3CCC(c4cccc5c4O[C@@H](c4ccc(Cl)cc4F)CO5)CC3)n(C[C@@H]3CCO3)c2c1 [Crystal form E of tromethamine salt]      98.1

Next compound, please.
# % Purity of O=C(O)c1ccc2nc(CN3CCC(c4cccc5c4O[C@@H](c4ccc(Cl)cc4F)CO5)CC3)n(C[C@@H]3CCO3)c2c1 [Crystal form I of hydrochloride salt] = 96.9

----------
Some molecules, each annotated with its measured % Purity.
- assay.comment: Stability of crystal forms of salts under influencing factors (illumination, high temperature, high humidity)
- Format: physicochemical
- details: Illumination (4500 Lux), 30 days, open
Counter-ions that a name gives are not always drawn.

Please review the following examples before continuing.
>>> print(df.to_string())
                                   molecule  readout_name  measured
0  O=C(O)c1ccc2nc(CN3CCC(c4cccc5c4O[C@@H](c4ccc(Cl)cc4F)CO5)CC3)n(C[C@@H]3CCO3)c2c1 [Crystal form E of tromethamine salt]      % Purity     95.5%
1  O=C(O)c1ccc2nc(CN3CCC(c4cccc5c4O[C@@H](c4ccc(Cl)cc4F)CO5)CC3)n(C[C@@H]3CCO3)c2c1 [Crystal form A of tromethamine salt]      % Purity     90.8%
2  O=C(O)c1ccc2nc(CN3CCC(c4cccc5c4O[C@@H](c4ccc(Cl)cc4F)CO5)CC3)n(C[C@@H]3CCO3)c2c1 [Crystal form D of tromethamine salt]      % Purity     99.6%
3  O=C(O)c1ccc2nc(CN3CCC(c4cccc5c4O[C@@H](c4ccc(Cl)cc4F)CO5)CC3)n(C[C@@H]3CCO3)c2c1 [Crystal form I of hydrochloride salt]      % Purity     98.0%

For the next question, use this molecule.
Reported % Purity for O=C(O)c1ccc2nc(CN3CCC(c4cccc5c4O[C@@H](c4ccc(Cl)cc4F)CO5)CC3)n(C[C@@H]3CCO3)c2c1 [Crystal form I of tartrate salt] was 98.3%

----------
- assay.comment: Stability of crystal forms of salts under influencing factors (illumination, high temperature, high humidity)
- Type: physicochemical
- details: 92.5% RH, 30 days, open
- Source text: The sampling and investigation period was 30 days.
Where a name gives a salt, the structure may show the parent alone.
readout.name: % Purity (%)
Kindly provide the numeric value in % only, without the unit symbol.

>>> df
                                   compound  display_unit  measured
0  O=C(O)c1ccc2nc(CN3CCC(c4cccc5c4O[C@@H](c4ccc(Cl)cc4F)CO5)CC3)n(C[C@@H]3CCO3)c2c1 [Crystal form I of tartrate salt]             %      98.3
1  O=C(O)c1ccc2nc(CN3CCC(c4cccc5c4O[C@@H](c4ccc(Cl)cc4F)CO5)CC3)n(C[C@@H]3CCO3)c2c1 [Crystal form D of tromethamine salt]             %      99.0

// moving on: another record for % Purity
Measured % Purity of O=C(O)c1ccc2nc(CN3CCC(c4cccc5c4O[C@@H](c4ccc(Cl)cc4F)CO5)CC3)n(C[C@@H]3CCO3)c2c1 [Crystal form A of tromethamine salt] : 98.6
